Where do these numbers come from? They come from PubChem BioAssay (EPA / NIEHS).

Below, each entry is listed with its recorded AC50.
experimentalTarget: Peroxisome proliferator-activated receptor gamma (Homo sapiens) (UniProt P37231)
Sequence (P37231 whole entry, looked up): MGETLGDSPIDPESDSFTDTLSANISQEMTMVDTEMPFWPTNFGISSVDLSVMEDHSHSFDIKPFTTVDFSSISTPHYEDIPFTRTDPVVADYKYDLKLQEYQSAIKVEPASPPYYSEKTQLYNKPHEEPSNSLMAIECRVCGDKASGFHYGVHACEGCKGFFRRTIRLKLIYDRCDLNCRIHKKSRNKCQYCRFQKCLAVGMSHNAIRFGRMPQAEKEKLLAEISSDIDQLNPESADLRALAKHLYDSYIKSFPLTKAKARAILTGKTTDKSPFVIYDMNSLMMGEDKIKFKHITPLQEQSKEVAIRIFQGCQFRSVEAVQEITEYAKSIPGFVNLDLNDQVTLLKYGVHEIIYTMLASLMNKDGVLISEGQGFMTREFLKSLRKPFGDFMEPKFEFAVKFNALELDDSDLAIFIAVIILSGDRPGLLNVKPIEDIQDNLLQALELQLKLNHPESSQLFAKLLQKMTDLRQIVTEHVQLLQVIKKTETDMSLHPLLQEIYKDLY
procedureText: ATG_hPPARg_XSP1: Attagene TRANS-FACTORIAL Multi-Species (XSP1) HepG2 Assay for human Peroxisome Proliferator-activated Receptor gamma (PPARg) (AID 2283800)
Procedure: ATG_XSP1_multi-species_TRANS is a cell-based, multiplexed assay created by modifying the existing Attagene TRANS-FACTORIAL system to include a panel of nuclear receptors from some or all the following species: human (Homo sapiens), mouse (Mus musculus), frog (Xenopus laevis), zebrafish (Danio rerio), chicken (Gallus gallus), and turtle (Chrysemys picta). The ECOTOX-FACTORIAL format uses HepG2, a human liver cell line, with measurements taken at 24 hours after chemical dosing in a 24-well plate. […]
Inconclusive results are not listed. The source made the active and inactive calls. How the source made its calls: active means hit-call score of the fitted dose curve at least 0.9, where 1 is the maximum; inconclusive means response in the unintended direction; inactive means score below 0.9.

These solved cases illustrate the format of a correct answer.
In [3]: df
Out[3]:
                                   compound        assayresult
0  C#CCOS(=O)OC1CCCCC1Oc1ccc(C(C)(C)C)cc1 (centres undefined)   26.1 µM (active)
1  CC(C)(C)c1ccc(CSc2cnn(C(C)(C)C)c(=O)c2Cl)cc1  0.387 µM (active)

Value of measured AC50 for the entry CC(C)Oc1cc(-n2nc(C(C)(C)C)oc2=O)c(Cl)cc1Cl : 12.7 µM (active)
